- Test system: corn (Zea mays, ZEAMX)
- MEASUREMENT_PROTOCOL: Test A post-emergence, corn
- Assay type: in vivo
- TEST_SETTINGS: Post-Emergence at 250 g/ha; after 13 d
The threshold is inclusive: damage to plant (100=total damage; 0=no damage) ZEAMX of exactly 70 counts as Fulfilled; values below receive Not fulfilled.

Qu. State whether the measured damage to plant (100=total damage; 0=no damage) ZEAMX reaches 70, counting equality as reaching it, for CN1CC(c2nn(C)c(Cl)c2Br)C(C(=O)Nc2ccc(F)cc2F)C1=O (racemic)
Ans. Not fulfilled

Next:
Qu. State whether the measured damage to plant (100=total damage; 0=no damage) ZEAMX reaches 70, counting equality as reaching it, for CN1CC(c2cc(C(F)(F)F)n(C)n2)C(C(=O)Nc2cccc(F)n2)C1=O (racemic)
Ans. Not fulfilled

Qu. State whether the measured damage to plant (100=total damage; 0=no damage) ZEAMX reaches 70, counting equality as reaching it, for CN1CC(c2cc(C(F)(F)F)n(C)n2)C(C(=O)Nc2cccc(F)c2C(F)(F)F)C1=O (racemic)
Ans. Not fulfilled

Qu. State whether the measured damage to plant (100=total damage; 0=no damage) ZEAMX reaches 70, counting equality as reaching it, for CN1CC(c2cc(C(F)(F)F)n(C)n2)C(C(=O)Nc2ccc(F)cc2F)C1=O (racemic)
Ans. Not fulfilled

Qu. State whether the measured damage to plant (100=total damage; 0=no damage) ZEAMX reaches 70, counting equality as reaching it, for CCn1nc([C@H]2CN(C)C(=O)[C@@H]2C(=O)Nc2cccc(F)c2F)c2ccc(F)cc21
Ans. Fulfilled

Qu. State whether the measured damage to plant (100=total damage; 0=no damage) ZEAMX reaches 70, counting equality as reaching it, for CN1C[C@H](c2nn(C)c3c(F)cccc23)[C@@H](C(=O)Nc2cccc(F)c2F)C1=O
Ans. Not fulfilled

Qu. State whether the measured damage to plant (100=total damage; 0=no damage) ZEAMX reaches 70, counting equality as reaching it, for CN1CC(c2cc(Cl)n(C)n2)C(C(=O)Nc2cccc(F)c2F)C1=O (racemic)
Ans. Not fulfilled

Qu. State whether the measured damage to plant (100=total damage; 0=no damage) ZEAMX reaches 70, counting equality as reaching it, for CCn1nc([C@H]2CN(C)C(=O)[C@@H]2C(=O)Nc2ccc(F)nc2F)c2cccc(F)c21
Ans. Not fulfilled

Qu. State whether the measured damage to plant (100=total damage; 0=no damage) ZEAMX reaches 70, counting equality as reaching it, for CN1CC(c2cc(C(F)(F)F)n(C)n2)C(C(=O)Nc2ccc(F)c(F)c2F)C1=O (racemic)
Ans. Fulfilled

Qu. State whether the measured damage to plant (100=total damage; 0=no damage) ZEAMX reaches 70, counting equality as reaching it, for CN1C[C@H](c2nn(C)c3c(Cl)cccc23)[C@@H](C(=O)Nc2cccc(F)c2F)C1=O
Ans. Not fulfilled

Qu. State whether the measured damage to plant (100=total damage; 0=no damage) ZEAMX reaches 70, counting equality as reaching it, for CCn1nc([C@@H]2CN(C)C(=O)[C@H]2C(=O)Nc2cccc(F)c2F)c2cccc(F)c21
Ans. Fulfilled

Qu. State whether the measured damage to plant (100=total damage; 0=no damage) ZEAMX reaches 70, counting equality as reaching it, for COc1c(F)cccc1NC(=O)C1C(=O)N(C)CC1c1cc(C(F)(F)F)n(C)n1 (racemic)
Ans. Fulfilled

Qu. State whether the measured damage to plant (100=total damage; 0=no damage) ZEAMX reaches 70, counting equality as reaching it, for CN1CC(c2nn(C)c(Cl)c2Br)C(C(=O)Nc2ccc(F)c(F)c2F)C1=O (racemic)
Ans. Not fulfilled
